# Target of assay: Human SARS-CoV-2_Wuhan S (SmT1) (SARS-CoV-2 (Wuhan), UniProt P0DTC2 14-1208)
# Run description: flow cytometry SVNA, VHH-Fc vs biotin-S binding to Vero E6 ACE2
Quantity name: IC99 (nM)
Respond with the bare value in nM.

Fill in: IC99 of NRCoV2-11 VHH-Fc (Fc fusion, bivalent VHH-Fc) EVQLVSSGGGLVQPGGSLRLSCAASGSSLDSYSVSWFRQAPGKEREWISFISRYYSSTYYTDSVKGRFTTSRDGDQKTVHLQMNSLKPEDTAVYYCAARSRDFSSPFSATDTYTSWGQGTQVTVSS is ___
99.8

// same read-out, input: NRCoV2-15 VHH-Fc (Fc fusion, bivalent VHH-Fc) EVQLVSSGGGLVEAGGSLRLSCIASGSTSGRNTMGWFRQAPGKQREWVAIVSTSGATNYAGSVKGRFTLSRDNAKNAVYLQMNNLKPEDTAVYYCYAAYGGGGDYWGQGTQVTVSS
71.5

// same read-out, input: NRCoV2-SR02 VHH-Fc (Fc fusion, bivalent VHH-Fc) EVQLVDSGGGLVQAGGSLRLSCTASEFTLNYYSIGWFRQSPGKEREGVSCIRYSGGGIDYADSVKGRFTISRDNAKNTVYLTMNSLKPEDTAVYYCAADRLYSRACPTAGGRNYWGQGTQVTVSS
49.8

// same read-out, input: NRCoV2-17 VHH-Fc (Fc fusion, bivalent VHH-Fc) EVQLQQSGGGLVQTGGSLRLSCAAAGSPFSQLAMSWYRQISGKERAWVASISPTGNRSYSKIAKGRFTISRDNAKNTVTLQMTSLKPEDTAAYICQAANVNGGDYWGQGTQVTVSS
101

// same read-out, input: NRCoV2-SR13 VHH-Fc (Fc fusion, bivalent VHH-Fc) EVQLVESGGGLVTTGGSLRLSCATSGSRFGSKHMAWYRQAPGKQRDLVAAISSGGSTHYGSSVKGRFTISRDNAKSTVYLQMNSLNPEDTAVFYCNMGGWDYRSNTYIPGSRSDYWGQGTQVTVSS
1970

// same read-out, input: NRCoV2-12 VHH-Fc (Fc fusion, bivalent VHH-Fc) EVQLQQSGGGLVQAGGSLRLSCAASGRTFRNYVMGWFRQAPQAPGKDHEFVAAISWGGTEIYYADSVKGRFTISRDNAKNTVYLQMNSLKPEDTAVYYCAADRGLSYYYTRTTEYNYWGQGTQVTVSS
840

// same read-out, input: NRCoV2-02 VHH-Fc (Fc fusion, bivalent VHH-Fc) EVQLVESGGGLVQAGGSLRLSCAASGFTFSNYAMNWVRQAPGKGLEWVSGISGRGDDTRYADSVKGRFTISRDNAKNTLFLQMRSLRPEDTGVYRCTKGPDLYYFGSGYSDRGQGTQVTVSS
30

// same read-out, input: NRCoV2-MRed05 VHH-Fc (Fc fusion, bivalent VHH-Fc) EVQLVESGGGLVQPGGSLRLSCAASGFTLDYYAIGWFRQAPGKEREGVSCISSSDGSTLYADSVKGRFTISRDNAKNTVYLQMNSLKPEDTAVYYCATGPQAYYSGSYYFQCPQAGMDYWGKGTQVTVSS
36.3
